B1: library; a variant is named by its letters at N, in order (parent)
chain: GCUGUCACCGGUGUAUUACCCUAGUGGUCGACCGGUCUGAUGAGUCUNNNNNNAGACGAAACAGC

# Variants of: B1
# assay_remarks: normalized RNA/DNA level without ligand (relative to sTRSVctl = 100) (log10 (% of sTRSVctl)); ligand: hypoxanthine (xanthine aptamer); higher = less ribozyme self-cleavage, higher mRNA level
# condition_details: HEK293T, reporter: mCherry (pCS4076), ligand present: no
Could you please report measured normalized RNA/DNA level without ligand (log10) for the items listed next?
Provide a numeric answer; units are not to be included.

For this variant ( `GCAGCC` ), measured normalized RNA/DNA level without ligand (log10) is 1.78

Consider `CGUGUA` . Its measured normalized RNA/DNA level without ligand (log10) is 1.68

variant `UUCCCA` , normalized RNA/DNA level without ligand (log10) observed: 1.91

Entry `UCAUUU` , normalized RNA/DNA level without ligand (log10) reported as 1.91

Record summary for `GCCCCU` : reported normalized RNA/DNA level without ligand (log10) = 1.93

# normalized RNA/DNA level without ligand (log10) (variant: `UGCUUC` ) is 1.96

Record summary for `CAUAUA` : reported normalized RNA/DNA level without ligand (log10) = 1.73

Documented normalized RNA/DNA level without ligand (log10) of `CAUCCC` : 1.91

Data point: `GAGCCC` ; normalized RNA/DNA level without ligand (log10) = 1.91

// recorded normalized RNA/DNA level without ligand (log10) for `UACAGG` : 1.41

Short answer for `CUGGUC` : normalized RNA/DNA level without ligand (log10) was 1.93

The recorded normalized RNA/DNA level without ligand (log10) for `UUCUUA` is 1.88

normalized RNA/DNA level without ligand (log10) reading for `GGGUUU` : 1.95

GET /value?item= `AUCACG` &field=normalized RNA/DNA level without ligand (log10) returns 1.55

// sample `UCAUGU` , its normalized RNA/DNA level without ligand (log10) was 1.63

Sample `CGGUGC` ; normalized RNA/DNA level without ligand (log10) observed: 1.8

So for `GAGUAA` , the logged normalized RNA/DNA level without ligand (log10) turned out to be 1.54

Record summary for `ACGCGG` : reported normalized RNA/DNA level without ligand (log10) = 1.22

# normalized RNA/DNA level without ligand (log10) (variant: `AUAAUG` ) is 1.51

Just so you know, measured normalized RNA/DNA level without ligand (log10) for `UUCCCG` came out at 1.83

// field: normalized RNA/DNA level without ligand (log10); key: `UGCGCA` ; value = 1.82

According to the records, this variant `GACUCG` displays normalized RNA/DNA level without ligand (log10) of 1.63

Lab note: `UUCCUG` gave normalized RNA/DNA level without ligand (log10) of 1.76

# variant `AAAUUC` ; its normalized RNA/DNA level without ligand (log10) = 1.87

The reported value for `GACAAG` in terms of normalized RNA/DNA level without ligand (log10) is 1.36

normalized RNA/DNA level without ligand (log10) reading for `CUAGAA` : 1.79

Value of measured normalized RNA/DNA level without ligand (log10) for the entry `UGAUUG` : 1.76

// recorded normalized RNA/DNA level without ligand (log10) for `GCAACA` : 1.85

The variant `GGUGAG` showed normalized RNA/DNA level without ligand (log10) equal to 1.29

The variant listed as `UGAACC` shows normalized RNA/DNA level without ligand (log10) equal to 1.92

Recorded result, `UUACGC` , normalized RNA/DNA level without ligand (log10): 1.81

Reported normalized RNA/DNA level without ligand (log10) ( `GUCGCG` ) = 1.55

Summary for this variant, `GACCUC` : normalized RNA/DNA level without ligand (log10) is 1.91

Per the record, `UCGCCC` has normalized RNA/DNA level without ligand (log10) of 1.99

The variant `CUCCUG` showed normalized RNA/DNA level without ligand (log10) equal to 1.95

// recorded normalized RNA/DNA level without ligand (log10) for `CUUGGG` : 1.59

normalized RNA/DNA level without ligand (log10) measured on `CUGAUU` = 1.87

// recorded normalized RNA/DNA level without ligand (log10) for `AUAUUU` : 1.89

Please fill in: normalized RNA/DNA level without ligand (log10) reported for `GCGUGU` = 1.42

Note to self: normalized RNA/DNA level without ligand (log10) recorded for `ACGAUG` was 1.23

The recorded normalized RNA/DNA level without ligand (log10) for entry `AAGCAU` equals 1.7

Quick note, normalized RNA/DNA level without ligand (log10) for `CUUUCA` landed at 1.89

normalized RNA/DNA level without ligand (log10) in this record for `AGCACA` : 1.79

For record `UGUAAC` the listed normalized RNA/DNA level without ligand (log10) is 1.81

Value of normalized RNA/DNA level without ligand (log10) reported for the variant `GCCGAU` is 1.76

Looking up `GACUCA` , I see its normalized RNA/DNA level without ligand (log10) listed as 1.89

The values you see were collected from the supplement of paper PMC6757056.
